compounds and their reported IC50
- test system: CETP (Homo sapiens, UniProt P11597)
- Construct: made in house; host or cells: CHO cells (serum-free conditioned medium)
- Sequence (P11597 18-493): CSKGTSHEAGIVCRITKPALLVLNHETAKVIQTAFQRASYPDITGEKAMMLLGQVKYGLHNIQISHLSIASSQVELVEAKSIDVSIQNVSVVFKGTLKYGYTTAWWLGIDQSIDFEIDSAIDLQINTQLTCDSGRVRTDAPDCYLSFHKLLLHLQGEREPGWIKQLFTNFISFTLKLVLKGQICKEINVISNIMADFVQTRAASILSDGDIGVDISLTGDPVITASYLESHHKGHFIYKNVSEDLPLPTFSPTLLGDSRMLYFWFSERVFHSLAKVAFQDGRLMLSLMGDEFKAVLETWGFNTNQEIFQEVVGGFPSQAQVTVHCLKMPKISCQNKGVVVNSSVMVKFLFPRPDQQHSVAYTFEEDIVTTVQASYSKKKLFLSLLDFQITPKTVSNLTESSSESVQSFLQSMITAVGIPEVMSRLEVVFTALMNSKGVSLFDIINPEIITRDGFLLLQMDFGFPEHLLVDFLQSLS
- experiment notes: CETP activity in vitro: transfer of [3H]CE from HDL donor to LDL acceptor particles
- Assay type: biochemical
- experimental context: IC50(μm), 50% inhibition of [3H]CE transfer from HDL to LDL, 2 hours at 37° C.
Value expressed in µM; do not type the unit.

Query: IC50; subject: CCOC(=O)c1c(C(F)(F)F)nc(C(F)(F)F)c(C(=O)OCC)c1CC(C)C 45

IC50 lookup needed for CCOC(=O)c1c(C(F)F)nc(C(F)(F)F)c(C(=O)OCC)c1C1CCCCC1 , thanks. 50

Need IC50, item COC(=O)c1c(C(F)F)nc(C(F)(F)F)c(C(=O)Sc2ccc(C)cc2C)c1CC(C)C [Compound 152] 60

Item COC(=O)c1c(C(F)F)nc(C(F)(F)F)c(C(=O)Sc2ccc(SC)cc2)c1CC(C)C has what recorded IC50? 80

Endpoint output: IC50 of COC(=O)c1c(C(F)F)nc(C(F)(F)F)c(C(=O)Oc2ccc(Cl)cc2)c1CC(C)C . Value? 45

* * *

- test system: CETP (Homo sapiens)
- Construct: made in house; host or cells: CHO cells (serum-free conditioned medium)
- experiment notes: CETP activity in vitro: transfer of [3H]CE from HDL donor to LDL acceptor particles
- Type: biochemical
- experimental context: Table 6, compounds of formula T-6; read-out: IC50
assay metric: pIC50
In textbook form, pIC50 equals minus log to base ten of the concentration in mol/L.

Dear colleague, I am looking for the recorded pIC50 of the following compound: COC(=O)c1c(C(F)F)nc(C(F)(F)F)c(CSc2nccc(C)n2)c1CC(C)C [Compound 197] 4.22

What does the record list as pIC50 for COC(=O)c1c(C(F)F)nc(C(F)(F)F)c(CSc2ccc3ccccc3n2)c1CC(C)C [Compound 192] ? 4.40

Reported pIC50, compound COC(=O)c1c(C(F)F)nc(C(F)(F)F)c(CSc2cc(Cl)ccc2Cl)c1CC(C)C [Compound 195] : ____ 4.30

Data request, read-out pIC50, for COC(=O)c1c(C(F)F)nc(C(F)(F)F)c(CSc2nc3ccc(C)cc3[nH]2)c1CC(C)C [Compound 209] 5.00

Name the recorded pIC50 for COC(=O)c1c(C(F)F)nc(C(F)(F)F)c(CSc2ccc(Br)cc2OC(F)(F)F)c1CC(C)C [Compound 206] . 4.30

Data request, read-out pIC50, for COC(=O)c1c(C(F)F)nc(C(F)(F)F)c(CSc2cccc(Cl)c2)c1CC(C)C [Compound 213] 4.82

For the compound shown here, COC(=O)c1c(C(F)F)nc(C(F)(F)F)c(CSc2ccc(Cl)c(Cl)c2)c1CC(C)C [Compound 214] , give the reported pIC50. 5.70

For COC(=O)c1c(C(F)F)nc(C(F)(F)F)c(CSc2c(F)c(F)c(C(F)(F)F)c(F)c2F)c1CC(C)C [Compound 196] , what is its reported pIC50? 4.70

Given COC(=O)c1c(C(F)F)nc(C(F)(F)F)c(CSc2ccccc2OC)c1CC(C)C [Compound 208] , state its recorded pIC50. 4.22

Need pIC50 of COC(=O)c1c(C(F)F)nc(C(F)(F)F)c(CSc2ccccc2Br)c1CC(C)C [Compound 217] , thanks. 4.30

Entry under review: COC(=O)c1c(C(F)F)nc(C(F)(F)F)c(CSc2nc3ccccc3[nH]2)c1CC(C)C [Compound 210] . Reported pIC50? 4.70

Any idea what pIC50 was measured for COC(=O)c1c(C(F)F)nc(C(F)(F)F)c(CSc2ccc3ccccc3c2)c1CC(C)C [Compound 215] ? 5.70

Name the reported pIC50 value associated with the compound COC(=O)c1c(C(F)F)nc(C(F)(F)F)c(CSc2nc3ccc([N+](=O)[O-])cc3[nH]2)c1CC(C)C [Compound 190] 4.60

Tell me the measured pIC50 of COC(=O)c1c(C(F)F)nc(C(F)(F)F)c(CSc2cc(C(C)(C)C)cc(C(C)(C)C)c2)c1CC(C)C [Compound 187] , please. 4.40

I have this compound here, COC(=O)c1c(C(F)F)nc(C(F)(F)F)c(CSc2nc3ccccc3o2)c1CC(C)C [Compound 205] , and I need its recorded pIC50. 4.70

Give the measured pIC50 of COC(=O)c1c(C(F)F)nc(C(F)(F)F)c(CSc2ccc(Br)cc2)c1CC(C)C [Compound 193] . 4.70
